test_system: human chymotrypsin (Chtr) (human, UniProt P17538 19-263); further: test concentration or dose not given here
Sequence (P17538 19-263): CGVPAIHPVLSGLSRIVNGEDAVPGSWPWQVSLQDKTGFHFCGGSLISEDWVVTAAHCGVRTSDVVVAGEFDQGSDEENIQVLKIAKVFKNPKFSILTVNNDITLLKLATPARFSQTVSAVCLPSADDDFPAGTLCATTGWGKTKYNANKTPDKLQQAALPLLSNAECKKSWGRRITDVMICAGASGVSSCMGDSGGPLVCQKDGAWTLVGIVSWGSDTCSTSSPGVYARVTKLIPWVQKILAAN
assay_notes: cell-based or functional assay
# maps each entry to its % Inhibition
Give the number; % is assumed, so skip it.

// known answers, use as guide
{"binder": "AATE8 (other, human, mature; also called rAATE8) HHHHHHEDPQGDAAQKTDTSHHDQDHPTFNKITPNLAEFAFSLYRQLAHQSNSTNIFFSPVSIATAFAMLSLGTKADTHDEILEGLNFNLTEIPEAQIHEGFQELLRTLNQPDSQLQLTTGNGLFLSEGLKLVDKFLEDVKKLYHSEAFTVNFGDTEEAKKQINDYVEKGTQGKIVDLVKELDRDTVFALVNYIFFKGKWERPFEVKDTEEEDFHVDQVTTVKVPMMKRLGMFNIQHCKKLSSWVLLMKYLGNATAIFFLPDEGKLQHLENELTHDIITKFLENEDRRSASLHLPKLSITGTYDLKSVLGQLGITKVFSNGADLSGVTEEAPLKLSKAVHKAVLTIDEKGTEAAGAMFLEALQRAIPPEVKFNKPFVFLMIEQNTKSPLFMGKVVNPTQK", "% Inhibition (%)": 19}
{"binder": "AATC11 (other, human, mature) HHHHHHEDPQGDAAQKTDTSHHDQDHPTFNKITPNLAEFAFSLYRQLAHQSNSTNIFFSPVSIATAFAMLSLGTKADTHDEILEGLNFNLTEIPEAQIHEGFQELLRTLNQPDSQLQLTTGNGLFLSEGLKLVDKFLEDVKKLYHSEAFTVNFGDTEEAKKQINDYVEKGTQGKIVDLVKELDRDTVFALVNYIFFKGKWERPFEVKDTEEEDFHVDQVTTVKVPMMKRLGMFNIQHCKKLSSWVLLMKYLGNATAIFFLPDEGKLQHLENELTHDIITKFLENEDRRSASLHLPKLSITGTYDLKSVLGQLGITKVFSNGADLSGVTEEAPLKLSKAVHKAVLTIDEKGTEAAGAMFLEAIPRQTNPEVKFNKPFVFLMIEQNTKSPLFMGKVVNPTQK", "% Inhibition (%)": 18}
{"binder": "AATG1g (other, human, mature) HHHHHHEDPQGDAAQKTDTSHHDQDHPTFNKITPNLAEFAFSLYRQLAHQSNSTNIFFSPVSIATAFAMLSLGTKADTHDEILEGLNFNLTEIPEAQIHEGFQELLRTLNQPDSQLQLTTGNGLFLSEGLKLVDKFLEDVKKLYHSEAFTVNFGDTEEAKKQINDYVEKGTQGKIVDLVKELDRDTVFALVNYIFFKGKWERPFEVKDTEEEDFHVDQVTTVKVPMMKRLGMFNIQHCKKLSSWVLLMKYLGNATAIFFLPDEGKLQHLENELTHDIITKFLENEDRRSASLHLPKLSITGTYDLKSVLGQLGITKVFSNGADLSGVTEEAPLKLSKAVHKAVLTIDEKGTEAAGAMFLEGSLRGIPPEVKFNKPFVFLMIEQNTKSPLFMGKVVNPTQK", "% Inhibition (%)": 17}

Consider now this further binder.
Using the record for AATG1 (other, human, mature) HHHHHHEDPQGDAAQKTDTSHHDQDHPTFNKITPNLAEFAFSLYRQLAHQSNSTNIFFSPVSIATAFAMLSLGTKADTHDEILEGLNFNLTEIPEAQIHEGFQELLRTLNQPDSQLQLTTGNGLFLSEGLKLVDKFLEDVKKLYHSEAFTVNFGDTEEAKKQINDYVEKGTQGKIVDLVKELDRDTVFALVNYIFFKGKWERPFEVKDTEEEDFHVDQVTTVKVPMMKRLGMFNIQHCKKLSSWVLLMKYLGNATAIFFLPDEGKLQHLENELTHDIITKFLENEDRRSASLHLPKLSITGTYDLKSVLGQLGITKVFSNGADLSGVTEEAPLKLSKAVHKAVLTIDEKGTEAAGAMFLEGSLRSIPPEVKFNKPFVFLMIEQNTKSPLFMGKVVNPTQK , report its % Inhibition. 27

Provenance of the data: patent US20140341881A1
